Assay: folding enthalpy; higher = less favourable; fluorescence melt of hairpins on a sequencing array, two-state fit
Conditions: sodium 0.088 M
Rule: 1.0 for folding enthalpy not less than -30 kcal/mol, 0.0 for anything less.

Sample answers from the record:
1) GTAAAGGGAAACCTTTAC (((((((....)))))))    0.0
2) GTATAGGAAACTATAC ((((((....))))))    1.0
3) GCTCAGCGAAAGCCGAGC ((((.((....)).))))    1.0
4) GTTAAGACGAAAGTCAAC (((..(((....))))))    1.0
5) GATCCTTGCTAGGATC ((((((....))))))    0.0
6) GATCGACCCTCGATC ((((((...))))))    0.0
7) GAGCGACGAAAGTCCTC (((.(((....))))))    1.0
8) GCGAACATCGC ((((...))))    1.0

stdin: I'd appreciate it if you could say whether GCAGATGGAAACACCTGC ((((.((....)).)))) has folding enthalpy at least equal to -30 kcal/mol.
stdout: 1.0

stdin: Determine whether measured folding enthalpy meets or exceeds -30 kcal/mol for GACATTGGAAACAATGTC (((((((....)))))))
stdout: 0.0

stdin: Test whether the sequence GTCTTGGCGAAAGCCGAC (((..(((....)))))) records folding enthalpy of -30 kcal/mol or higher.
stdout: 1.0

stdin: I'd appreciate it if you could say whether GCATCGCGAAAGCGTGGC ((..(((....)))..)) has folding enthalpy at least equal to -30 kcal/mol.
stdout: 1.0

stdin: Given the entry GATCAATTATTTGATC ((((((....)))))) , answer whether its folding enthalpy meets or surpasses -30 kcal/mol.
stdout: 0.0

stdin: Reported folding enthalpy reaches at least -30 kcal/mol for GGCGTCGAAAGACCGGCC ((((((....)))..))) ?
stdout: 1.0

stdin: State whether the measured folding enthalpy reaches -30 kcal/mol, counting equality as reaching it, for GAATTTGAAAAAATTC ((((((....))))))
stdout: 1.0

----------
Assay: folding enthalpy; higher = less favourable; fluorescence melt of hairpins on a sequencing array, two-state fit
Conditions: sodium 0.088 M
recorded-endpoint: folding enthalpy (kcal/mol)
Give bare numbers, in kcal/mol.

Example entries begin here.
1) GACAGCGAAAGCTCTGTC ((((((....)))..)))    -15.2
2) GATGCCCCGAAAGGGATC (((..(((....))))))    -10.3
3) GTCACGGGAAACCATGAC ((((.((....)).))))    -29.9
4) GCAAAGCGAAAGCTCAGC ((..(((....)))..))    -10.8
5) GTGCTAGAAATAGCAC ((((((....))))))    -40.3

The following sequences each have a reported value; give each one's folding enthalpy.
1. GTTGTGGGAAACCACGAC ((.((((....)))).))
2. GCGGTCGTCCGC ((((....))))
3. GGTCCCGAAAGGGGAACC ((((((....)))..)))
4. GCGGTTACGAAAGTACGC (((..(((....))))))
5. GATCTTATTGAAGATC ((((((....))))))
6. CGTTCCGGAAACGGTACG (((.(((....))).)))

stdout:
1: -30.8; 2: -31.1; 3: -17.2; 4: -26.7; 5: -31.5; 6: -31.5

stdin: Assign folding enthalpy to the following record: GCGATACGAAAGTAACGC (((.(((....))).)))
stdout: -41.5
